Origin of the recorded values: ChEMBL document CHEMBL1152948

- System: Mycobacterium tuberculosis
- ASSAY_SUMMARY: Antitubercular activity against Mycobacterium tuberculosis H37Rv by microdilution resazurin assay
- Type: functional
REPORTED_PROPERTY: MIC (µg/mL)
The reply should be a number in µg/mL, with the unit left off.

Below: 5 compounds and their reported MIC.
Could you tell me which MIC is on file for O=c1oc(-c2ccccn2)nn1CN1CCCCC1 ?
4

Could you tell me which MIC is on file for CC1CCCN(Cn2nc(-c3ccccn3)oc2=O)C1 (centres undefined) ?
4

Could you tell me which MIC is on file for CC1CCCCN1Cn1nc(-c2ccccc2)oc1=O (centres undefined) ?
32

Could you tell me which MIC is on file for CN(Cc1ccc(Cl)cc1Cl)Cn1nc(-c2ccncc2)oc1=O ?
8

Could you tell me which MIC is on file for CN(Cc1ccccc1F)Cn1nc(-c2ccncc2)oc1=O ?
4

Next:
Could you tell me which MIC is on file for CN(Cc1cccc(Br)c1)Cn1nc(-c2ccncc2)oc1=O ?
4

Could you tell me which MIC is on file for CC1CCCCN1Cn1nc(-c2ccccn2)oc1=O (centres undefined) ?
4
